# test: Example 6: NFA of saxagliptin in saxagliptin/Opadry II films with amino acids (HPLC)
# Type: physicochemical
# measurement.context: Saxagliptin/Opadry II films, amino acid 2% w/w in dispersion, sealed vials 60° C. five days; control without amine 2.63
readout.name: % NFA (as a % of saxagliptin peak) (%)
Numbers only here, please. The scale is %.

Worked cases, answers included:
N[C@@H](Cc1c[nH]cn1)C(=O)O [Histidine, histidine]: 1.68
NCCCC[C@H](N)C(=O)O [Lysine, lysine]: 2.84
N=C(N)NCCC[C@H](N)C(=O)O [Arginine, arginine]: 0

Now look at this entry.
Given NCC(=O)O [Glycine, glycine] , state its recorded % NFA (as a % of saxagliptin peak).
0

Entry source: patent US20140079778A1
